Reported interaction score values for the following binders.
# study.system: T1, 4H2750-AA
# T1 chain: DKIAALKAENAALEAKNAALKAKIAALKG
# test.protocol: two-hybrid library CCmax;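 note: natural log of median RNA to DNA barcode read ratio; higher means stronger binding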
# measurement.conditions: mean of both orientations

Example entries begin here.
DKIAALKAEIAALEAKIAALEAKNAALKG [4H2600-AA] | -1.65
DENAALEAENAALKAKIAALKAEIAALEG [4H1257-AA] | -1.22
DKIAALKAENAALEAKIAALEAEIAALEG [4H2721-AA] | 0.408
DENAALKAKIAALEAEIAALKAEIAALKG [4H1802-AA] | -1.63
DEIAALEAENAALEAEIAALKAENAALKG [4H140-AA] | -0.883

Exercise: Returns the measured interaction score for the input binder. Input: DENAALEAEIAALKAENAALEAKIAALKG [4H1110-AA]
Key: -0.176

Where do these numbers come from? They come from paper PMC10397247.
